B1: TPR t1 (parent)
chain: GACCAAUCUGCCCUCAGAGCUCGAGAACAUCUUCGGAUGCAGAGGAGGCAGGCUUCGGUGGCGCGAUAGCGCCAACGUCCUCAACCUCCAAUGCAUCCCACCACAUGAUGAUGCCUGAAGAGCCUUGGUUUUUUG

variants of: B1; test: polymerase ribozyme fitness, log enrichment relative to wild type (log ratio); higher = more active; in vitro selection for triplet polymerase activity
Consider the following variants and their measured polymerase ribozyme fitness (log ratio) readings.
property-name: polymerase ribozyme fitness (log ratio)

INSERT INTO measurements (mutations, obs_value) VALUES
  ('C8G C101A', -0.236),
  ('U7G C40U C72A C86U G93U C102A U106A', -5.6),
  ('C20A G45C G57C C73G U106C U130G', -4.17),
  ('C8G C98A C102A C115A', -3.34),
  ('U9A C13G A46G G107C G135U', -7.09),
  ('C56U G60U U87A', -3.76),
  ('U78C G113A', -1.36),
  ('A90U U116C', -1.26),
  ('A103U C124G', -3.17),
  ('C15G U32C C49U U87G C123A', -3.12),
  ('G10U G42U G69U C115A', -1.2),
  ('C40G A43C G69U G120C', -0.592),
  ('G71A C97U', -1.06),
  ('A100U U126G G135U', -2.69),
  ('C8U G19A U21C U55C', -2.54),
  ('C12U G47A C79U U87C', 0.112),
  ('G60U G61C', -1.45),
  ('C53A G60A C72U A100U G120C C123G', -0.938),
  ('G63C U81G G120A', -3.19),
  ('A121U U133A', 1.83),
  ('G39U C62U', -1.71),
  ('G61U G113C', -1.82),
  ('C82U U96A C101A G127A', -4.42),
  ('A46U G71U', -1.16),
  ('G93C G135C', -1.15),
  ('G35U G69A U81C G113U', -6.53),
  ('C62A U112A C123G', -1.31),
  ('A2C C11G C13G G42U A75G U81A', -4.31),
  ('C56U G128A', -1.64),
  ('A37U C53U G58C A66U C76G U106C', -2.44),
  ('A66G C86G', -1.77),
  ('C12A C49A G61A C82A', -0.648),
  ('C11G C94U', -0.128),
  ('C11G G61U U87G', 0.243),
  ('C56A A90C', -1.57),
  ('C56G A111C A119U', -1.72),
  ('G63A C89A C115G', -4.92),
  ('A95G C114G', -3.45),
  ('U21A C62A C89U G110A U112C', -5.55),
  ('A41U G45C C53G C79U C97U', -6.18),
  ('G69C G113U', -4.51),
  ('C4U C49U A66G G69C U78A', -5.15),
  ('C73A U87G', -0.467),
  ('G44C G135U', -1.88),
  ('C13A C72G C94A C124A', 0.278),
  ('U21A G69A U112A', -3);

Cited source for all entries: the RNAGym collection of RNA variant scans (doi:10.1073/pnas.2313332121)
